- Tested on: HL-60(TB) leukemia
- ASSAY_REMARKS: NCI tumour cell line growth inhibition, 48 h
Where a SMILES comes first, the peptide text is derived from it. [ ]: non-standard residue; d: D form. The star is where a group is joined. ξ: configuration not given here. NMeF = CN[C@@H](Cc1ccccc1)C(=O)O; NMeV = CN[C@H](C(=O)O)C(C)C; ξNMeV = CNC(C(=O)O)C(C)C; Boc = CC(C)(C)OC(=O)*; OBn = c1ccc(CO*)cc1
Please provide measured TGI for the entries that follow.
Write the answer as a number in µM, unit excluded.

For this compound ( COc1ccc(/C=C/c2ccnc3ccccc23)cc1OC ), measured TGI is 25.5

Form field TGI, entry COc1cc(O)c(Cc2ccccc2O)c(O)c1C(=O)CCc1ccccc1 : 20

// sample N#CC(/C(CCCC(=O)Nc1cccc([N+](=O)[O-])c1)=N\NC(=O)c1c(O)ccc2ccccc12)c1nc2ccccc2s1 (stereo unspecified) , its TGI was 24.1

COC(=O)C12Oc3ccc(-c4ccc5c(c4O)C(O)=C4C(=O)CC(C)C(O)C4(C(=O)OC)O5)c(O)c3C(O)=C1C(=O)CC(C)C2O (stereo unspecified) has a reported TGI of 0.319

Summary for this compound, CC(=O)c1c(C)c2cnc(Nc3ccc(N4CCNCC4)cn3)nc2n(C2CCCC2)c1=O : TGI is 24.8

Value of TGI reported for the compound COc1cc(S(=O)(=O)Nc2ccc(-c3csc(N4C(=O)CSC4c4ccccc4O)n3)cc2)ccc1Cl (stereo unspecified) is 49.8

Reported TGI ( Cc1cc(C)c2c(n1)S(=O)(=O)N(CCCN1CCN(c3cccc(Cl)c3)CC1)/C(=C(\O)c1ccc(Br)cc1)C2=O ) = 45.4

get_value(item= COc1cc(-c2ccc[nH]2)[nH]c1/C=C1\N=C(C)C(CC(=O)OCC(C)(C)C)=C1C , readout=TGI) returns 0.801

Reported TGI of COc1ccc(-c2c(-c3ccc(C#N)c(F)c3)nc(N3CCC(N)CC3)n(C)c2=O)cc1F : 29.1

Entry CN(C)CCCn1c(Cn2nc3ccccc3n2)nc2cc(C(F)(F)F)ccc21 ; TGI = 16.5

According to the records, this compound CC(C)C(C(=O)N(C)[C@H](C(=O)N1CCC[C@H]1C(=O)N(C)[C@@H](Cc1ccccc1)C(=O)OCc1ccccc1)C(C)C)N(C)C(=O)[C@@H](NC(=O)OC(C)(C)C)C(C)C (stereo partly specified) (Boc-V[ξNMeV][NMeV]P[NMeF]-OBn) displays TGI of 8.25

So for COc1ccccc1C(=O)OCC1CCCN2CCCCC12 (stereo unspecified) , the logged TGI turned out to be 44.2

// recorded TGI for CC(C)(C)[Si](C)(C)OC1[C@@H](COC(=O)NC(=O)CCl)O[C@@H](n2cnc3c(N)ncnc32)[C@H]1O[Si](C)(C)C(C)(C)C (stereo partly specified) : 12.3

The measured TGI associated with C(=N\NC1=NCCN1)/c1ccc2ccccc2c1 reads 34.5

Measured TGI of CCSc1nc(N/N=C/c2cccs2)c2cnn(CO)c2n1 : 42.1

The compound listed as CCCCCCCCCCCC[N+]12CC[N+](C)(CC1)CC2 has a reported TGI of 40.4

Kindly note the recorded TGI for CC#COS(=O)(=O)c1ccc(C)cc1 , which is 59.8

Data point: COc1ccc2c(c1)C(=O)c1c-2n(CCCN(C)C)c(=O)c2cc([N+](=O)[O-])ccc12 ; TGI = 0.245

get_value(item= CC(=O)Nc1ccc(/C=c2\sc3nnc(-c4cccnc4)n3c2=O)cc1 , readout=TGI) returns 42.9

For record CC(=O)[CH-]C(=O)c1ccccc1.CC(=O)[CH-]C(=O)c1ccccc1.CC(=O)[CH-]C(=O)c1ccccc1.[Ga+3] the listed TGI is 36.1

The compound listed as Cc1cc(O)c2c(c1)C(C1c3cccc(O)c3C(=O)c3c(O)cc(C)cc31)c1cccc(O)c1C2=O (stereo unspecified) has a reported TGI of 6.72
